Tested on: MDA-MB-231 breast
Test: NCI-60 one-dose screen, 48 h (100 = growth as untreated, 0 = no growth, -100 = all killed)
Settings: 10 µM unless noted
This is part of a sample that, as a whole, favours compounds with a hit. Of some 83,000 tested, about 20% had one in any assay.
growth for assorted molecules

>  <Molecule>
O=[N+]([O-])c1cc(Br)c2cccc3c2c1CC3

>  <Tgt>
MDA-MB-231 breast

>  <growth [%]>
87.1

$$$$
>  <Molecule>
C/C(=N\Nc1cc(C)nc2ccc(Br)cc12)c1ccc([N+](=O)[O-])cc1

>  <Tgt>
MDA-MB-231 breast

>  <growth [%]>
59.4

$$$$
>  <Molecule>
CC(C)=CCC[C@](C)(O)[C@H]1CC[C@]2(C)[C@@H]1CC[C@@H]1[C@@]3(C)C/C(=C/c4ccccc4)C(=O)C(C)(C)[C@@H]3CC[C@]12C

>  <Tgt>
MDA-MB-231 breast

>  <growth [%]>
85.5

$$$$
>  <Molecule>
Cc1nc(N)nc(N[C@@H](C)c2nc3cccc(NCc4ccc(C(=O)NO)cc4)c3c(=O)n2-c2ccccc2)n1

>  <Tgt>
MDA-MB-231 breast

>  <growth [%]>
81

$$$$
>  <Molecule>
C=C1C(=O)O[C@H]2[C@H]1CC/C(COC(=O)NCc1c[nH]c3ccc(F)cc13)=C\CC[C@@]1(C)O[C@@H]21

>  <Tgt>
MDA-MB-231 breast

>  <growth [%]>
-57.5

$$$$
>  <Molecule>
N=C1C(c2nc3ccccc3s2)=C(O)CN1c1cc(Cl)cc(Cl)c1

>  <Tgt>
MDA-MB-231 breast

>  <growth [%]>
66.4

$$$$
>  <Molecule>
Cc1nc2ccc(Cl)cn2c1-c1nnc(SCc2ccc([N+](=O)[O-])cc2)o1

>  <Tgt>
MDA-MB-231 breast

>  <growth [%]>
41.4

$$$$
>  <Molecule>
Cn1c2ccccc2c2c3c(c4c5ccccc5n(C)c4c21)C(=O)OC3

>  <Tgt>
MDA-MB-231 breast

>  <growth [%]>
76.2

$$$$
>  <Molecule>
N=C(N)c1ccc(OCCCCCCCCCCOc2ccc(C(=N)N)cc2)cc1

>  <Tgt>
MDA-MB-231 breast

>  <growth [%]>
-91.7

$$$$
>  <Molecule>
O=C(CCN1CCCC1)Nc1ccc2c(Nc3ccc(Br)cc3)c3ccccc3nc2c1

>  <Tgt>
MDA-MB-231 breast

>  <growth [%]>
-49.4

$$$$
>  <Molecule>
O=C(Cn1c[n+](CC(=O)c2ccc(-c3ccccc3)cc2)c2ccccc21)Nc1cccc2cccnc12

>  <Tgt>
MDA-MB-231 breast

>  <growth [%]>
-7.75

$$$$
>  <Molecule>
NC(=O)Nc1ccc(-n2cnc3cc(-c4ccc(O)cc4)ccc32)cc1

>  <Tgt>
MDA-MB-231 breast

>  <growth [%]>
107

$$$$
>  <Molecule>
C=C1C(=O)O[C@H]2[C@H]1CC/C(CNC(=O)c1cccc3ccccc13)=C\CC[C@@]1(C)O[C@@H]21

>  <Tgt>
MDA-MB-231 breast

>  <growth [%]>
34.1

$$$$
>  <Molecule>
O=C1Nc2cc(-c3cccc([N+](=O)[O-])c3)ccc2/C1=C/c1ccc[nH]1

>  <Tgt>
MDA-MB-231 breast

>  <growth [%]>
39.5

$$$$
>  <Molecule>
CC(=O)Oc1ccc(/C=N/NC(N)=S)nc1

>  <Tgt>
MDA-MB-231 breast

>  <growth [%]>
87.1

$$$$
>  <Molecule>
O=C(Nc1cccc(C(=O)N2CCc3ccc(Cl)cc32)c1)c1ccco1

>  <Tgt>
MDA-MB-231 breast

>  <growth [%]>
44.9

$$$$
>  <Molecule>
O=S(=O)(NCCNc1nccc(-c2c(-c3cccc(O)c3)nc3occn23)n1)c1ccc(C(F)(F)F)cc1

>  <Tgt>
MDA-MB-231 breast

>  <growth [%]>
90.7

$$$$
>  <Molecule>
O=C(/C(=C\c1ccc([N+](=O)[O-])cc1)S(=O)Cc1ccc(Cl)cc1)c1ccc(Cl)cc1 (stereo not drawn)

>  <Tgt>
MDA-MB-231 breast

>  <growth [%]>
76.2

$$$$

---

Test system: MOLT-4 leukemia
Assay: NCI-60 one-dose screen, 48 h
Details: 10 µM unless noted
This is part of a sample that, as a whole, favours compounds with a hit. Of some 83,000 tested, about 20% had one in any assay. Activity calls are given as the source filed them. How the source made its calls: active means growth percent below 10; inactive means the rest.
Classes used: True (active), False (inactive)

>  <Item smiles>
CCCCCN1C=C/C(=C\C(=O)N(C)c2ccc(Oc3ccccc3)cc2)c2ccccc21

>  <Answer label>
False

$$$$
>  <Item smiles>
N#C/C(=C\c1ccc(Cl)cc1)n1nnc2cc(F)c(F)cc21

>  <Answer label>
True

$$$$
>  <Item smiles>
CCCCCCNC(=O)Oc1ccc(/C(=C(\C)c2ccccc2)c2ccc(OCCN3CCCCC3)cc2)cc1

>  <Answer label>
False

$$$$
>  <Item smiles>
COc1cc2oc(-c3cccc(C(=O)Nc4ccc(Cl)cc4)c3)cc(=O)c2c(O)c1OC

>  <Answer label>
False

$$$$

---

System: SF-295 CNS
Test: NCI-60 one-dose screen, 48 h (100 = growth as untreated, 0 = no growth, -100 = all killed)
Details: 10 µM unless noted
Compounds without any hit were thinned out: in the full panel of roughly 83,000, 20% have a hit.
growth for assorted compounds
Endpoint: growth (%)

>  <Item smiles>
O=C(NNc1nc2c(F)cccc2n2cccc12)c1cnccn1

>  <Tgt>
SF-295 CNS

>  <Unit info>
%

>  <Test result>
8.17

$$$$
>  <Item smiles>
O=C(CSc1nc2ccccc2[nH]1)NCc1ccccc1

>  <Tgt>
SF-295 CNS

>  <Unit info>
%

>  <Test result>
102

$$$$
>  <Item smiles>
O=C1Nc2ccccc2/C1=C\c1c(-c2ccccc2)nc2ccccn12

>  <Tgt>
SF-295 CNS

>  <Unit info>
%

>  <Test result>
24

$$$$
>  <Item smiles>
Cn1c2ccccc2c2c3c(c4c5ccccc5n(C)c4c21)C(=O)OC3

>  <Tgt>
SF-295 CNS

>  <Unit info>
%

>  <Test result>
107

$$$$

---

Test system: UACC-62 melanoma
Test: NCI-60 one-dose screen, 48 h
Conditions: 10 µM unless noted
This is part of a sample that, as a whole, favours compounds with a hit. Of some 83,000 tested, about 20% had one in any assay. The source made the active and inactive calls. Rule for the calls: active = growth percent below 10; inactive = the rest.
Classes used: active, inactive

>  <Molecule>
COc1cccc(-c2nc3occn3c2-c2ccnc(NCCNS(=O)(=O)c3cccc4ccccc34)n2)c1

>  <Answer label>
inactive

$$$$
>  <Molecule>
COc1ccc(-c2[nH][nH]c(=O)c2-c2nc3ccccc3s2)cc1

>  <Answer label>
inactive

$$$$
>  <Molecule>
C=C1C(=O)O[C@H]2[C@H]1CC/C(COC(=O)NCCc1c[nH]c3ccc(OC)cc13)=C\CC[C@@]1(C)O[C@@H]21

>  <Answer label>
inactive

$$$$
>  <Molecule>
COc1cc2c(-c3cc4c(cc3CNCCc3ccc5c(c3)OCO5)OCO4)cccc2c(OC)c1O

>  <Answer label>
inactive

$$$$
>  <Molecule>
COc1cc(C2=C(c3cn(C)c4ccccc34)COC2=O)cc(OC)c1OC

>  <Answer label>
inactive

$$$$
>  <Molecule>
COc1cc2cc(Oc3cccc(NC(=O)Nc4cc(C(F)(F)F)cc(C(F)(F)F)c4)c3)c(C)nc2cc1OC

>  <Answer label>
active

$$$$
>  <Molecule>
CCOC(=O)C1=C(CCl)NC(=O)NC1c1ccc2c(c1)OCO2 (stereo unspecified)

>  <Answer label>
inactive

$$$$
>  <Molecule>
CCCOC(=O)N[C@H]1CCc2c(Cl)c(OC)c(OC)c(OC)c2-c2ccc(SC)c(=O)cc21

>  <Answer label>
inactive

$$$$
>  <Molecule>
CNC(=O)c1cccc(Cn2nc(C)c(NC(=O)c3ccc(COc4ccc(C(F)(F)F)cc4C)cc3)c2C)c1

>  <Answer label>
inactive

$$$$
>  <Molecule>
CCOc1ccc(/C=N/Nc2cc(C)nc3ccc(Br)cc23)cc1

>  <Answer label>
inactive

$$$$
>  <Molecule>
Oc1ccc(C2c3ccccc3Oc3ccccc32)c2cccnc12

>  <Answer label>
active

$$$$
>  <Molecule>
Cc1cc(Cl)nc(N(CCNc2ccnc3cc(Cl)ccc23)Cc2ccccn2)n1

>  <Answer label>
inactive

$$$$
>  <Molecule>
N#Cc1c(-c2cccc([N+](=O)[O-])c2)nc(SCC(=O)c2ccc(Cl)cc2)[nH]c1=O

>  <Answer label>
inactive

$$$$
>  <Molecule>
COc1cc(F)c(/C=C/c2cc(/C=C/c3cc(OC)c(OC)cc3F)on2)cc1OC

>  <Answer label>
inactive

$$$$
>  <Molecule>
COc1cc2cc(CN3CCN(c4nccc(-c5ccc6ccccc6c5)n4)CC3)c(=O)[nH]c2cc1OC

>  <Answer label>
inactive

$$$$
>  <Molecule>
CCOC(=O)c1cc(C(=O)c2ccc(OC)cc2)n2ccc(/C=C/c3cc[n+](CC(=O)c4ccc(OC)cc4)cc3)cc12

>  <Answer label>
inactive

$$$$
>  <Molecule>
C#Cc1cccc(NC(=O)c2cccc(NC(=O)CCl)c2)c1

>  <Answer label>
active

$$$$
>  <Molecule>
Cc1ccc(NC(=O)Cc2ccc(/C=C/C(=O)c3ncc[nH]3)cc2)cc1

>  <Answer label>
inactive

$$$$
>  <Molecule>
COc1ccc(NC(N)=NCCCOc2ccc(F)cc2)cc1

>  <Answer label>
inactive

$$$$
>  <Molecule>
CC(=O)[C@@H]1CC[C@]2(C(N)=O)CC[C@]3(C)[C@H](CC[C@@H]4[C@@]5(C)CCCNC(C)(C)[C@@H]5CC[C@]43C)[C@@H]12

>  <Answer label>
inactive

$$$$
>  <Molecule>
Cn1c(N2NC(=O)C(N=Nc3ccc(S(N)(=O)=O)cc3)C2=O)nc(-c2ccco2)c(C#N)c1=O (stereo unspecified)

>  <Answer label>
inactive

$$$$
>  <Molecule>
c1ccc(-c2c(-c3ccccc3)[n+](Cc3ccc4ccccc4c3)c(-c3cccc4ccccc34)n2Cc2ccc3ccccc3c2)cc1

>  <Answer label>
active

$$$$
>  <Molecule>
C=C(C)[C@@H]1CC[C@]2(C(=O)N3CCN(C)CC3)CC[C@]3(C)[C@H](CC[C@@H]4[C@@]5(C)CC[C@H](OCCC#N)C(C)(C)[C@@H]5CC[C@]43C)[C@@H]12

>  <Answer label>
inactive

$$$$
>  <Molecule>
N#C/C(=C\c1ccc([N+](=O)[O-])s1)c1nc2cc(Br)ccc2s1

>  <Answer label>
inactive

$$$$
>  <Molecule>
COc1ccc(CNCCN2C(=O)c3ccc4c5c(ccc(c35)C2=O)C(=O)N(CCNCc2ccc(OC)c(OC)c2OC)C4=O)c(OC)c1OC

>  <Answer label>
active

$$$$
>  <Molecule>
CCN(c1ccccc1)S(=O)(=O)c1cc([N+](=O)[O-])ccc1Cl

>  <Answer label>
inactive

$$$$
